Here's what we have: Kd numbers for KDR (h) (Homo sapiens (Human)).
Field: numeric (nM). Do not append units.

Qu. Need Kd of Cc1c(C(=O)Nc2ccc(Oc3ccnc(NC(=O)C4CC4)c3)cn2)c(=O)n(-c2ccccc2)n1C [Example 8] , thanks.
Ans. 3.2

Qu. Please report the recorded Kd for Cc1c(C(=O)Nc2ccc(Oc3ccnc(NC(=O)C4CC4)c3)cc2)c(=O)n(-c2ccccc2)n1C [Example 16] .
Ans. 2.9

====

Protocol Text: Compound stability in rat liver microsomes
Assay type: in vitro ADME
Condition Description: pH 7.4; rat liver microsomes; in vivo CLint extrapolated
Field: CLint scaled at 5 μM. Provide a value for each of the compounds that follow.
Numbers only; they are read as mL/min/kg.

Qu. Query: CLint scaled at 5 μM; subject: Cc1c(C(=O)Nc2ccc(Oc3ccnc(NC(=O)C4CC4)c3)cn2)c(=O)n(-c2ccccc2)n1C
Ans. 3.53

Qu. Recorded CLint scaled at 5 μM of Cc1c(C(=O)Nc2ccc(Oc3ccnc(NC(=O)C4CC4)c3)cc2)c(=O)n(-c2ccccc2)n1C , please.
Ans. 5.86

Qu. Which measured CLint scaled at 5 μM value corresponds to Cc1c(C(=O)Nc2ccc(Oc3ccnc(NC(=O)C4CC4)c3)c(F)c2)c(=O)n(-c2ccccc2)n1C ?
Ans. 10.5

====

Protocol Text: Compound stability in rat liver microsomes
Format: in vitro ADME
Condition Description: pH 7.4; rat liver microsomes, 0.5 mg protein/mL, compound 5 μM, NADPH 1.0 mM, 37° C.
Readout Kind: half-life at 5 μM (h)
Unit h implied. Number only.

Qu. State the recorded half-life at 5 μM for this entry: Cc1c(C(=O)Nc2ccc(Oc3ccnc(NC(=O)C4CC4)c3)cn2)c(=O)n(-c2ccccc2)n1C
Ans. 11.7

Qu. Need half-life at 5 μM of Cc1c(C(=O)Nc2ccc(Oc3ccnc(NC(=O)C4CC4)c3)c(F)c2)c(=O)n(-c2ccccc2)n1C , thanks.
Ans. 3.93

Qu. // lookup half-life at 5 μM for Cc1c(C(=O)Nc2ccc(Oc3ccnc(NC(=O)C4CC4)c3)cc2)c(=O)n(-c2ccccc2)n1C
Ans. 7.06

====

Protocol Text: Pharmacokinetics after intravenous and oral administration in rats
Assay type: in vivo, rat
Condition Description: rat, plasma, iv dosing, dose 1 mg/kg
Readout Kind: AUC(0-t) (ng·h/mL)
Give the value, in units of ng·h/mL, as a plain number.

Qu. Can you look up the measured AUC(0-t) of Cc1c(C(=O)Nc2ccc(Oc3ccnc(NC(=O)C4CC4)c3)c(F)c2)c(=O)n(-c2ccccc2)n1C [Example 11] for me?
Ans. 14000

Qu. # AUC(0-t) lookup, item Cc1c(C(=O)Nc2ccc(Oc3ccnc(NC(=O)C4CC4)c3)cc2)c(=O)n(-c2ccccc2)n1C [Example 16]
Ans. 23400

====

Protocol Text: Pharmacokinetics after intravenous and oral administration in rats
Assay type: in vivo, rat
Condition Description: rat, plasma, iv dosing, dose 2 mg/kg, read-out: Vss
Readout Kind: Vd (L/kg)
Supply the numeric figure in L/kg, leaving out any unit text.

Qu. Request the reported Vd associated with Cc1c(C(=O)Nc2ccc(Oc3ccnc(NC(=O)C4CC4)c3)cn2)c(=O)n(-c2ccccc2)n1C
Ans. 0.27
